Taken from patent US20070244184A1.

Target: recombinant human maltase glucoamylase (MGA) (Homo sapiens, UniProt O43451)
Sequence (O43451 87-954 limits assumed): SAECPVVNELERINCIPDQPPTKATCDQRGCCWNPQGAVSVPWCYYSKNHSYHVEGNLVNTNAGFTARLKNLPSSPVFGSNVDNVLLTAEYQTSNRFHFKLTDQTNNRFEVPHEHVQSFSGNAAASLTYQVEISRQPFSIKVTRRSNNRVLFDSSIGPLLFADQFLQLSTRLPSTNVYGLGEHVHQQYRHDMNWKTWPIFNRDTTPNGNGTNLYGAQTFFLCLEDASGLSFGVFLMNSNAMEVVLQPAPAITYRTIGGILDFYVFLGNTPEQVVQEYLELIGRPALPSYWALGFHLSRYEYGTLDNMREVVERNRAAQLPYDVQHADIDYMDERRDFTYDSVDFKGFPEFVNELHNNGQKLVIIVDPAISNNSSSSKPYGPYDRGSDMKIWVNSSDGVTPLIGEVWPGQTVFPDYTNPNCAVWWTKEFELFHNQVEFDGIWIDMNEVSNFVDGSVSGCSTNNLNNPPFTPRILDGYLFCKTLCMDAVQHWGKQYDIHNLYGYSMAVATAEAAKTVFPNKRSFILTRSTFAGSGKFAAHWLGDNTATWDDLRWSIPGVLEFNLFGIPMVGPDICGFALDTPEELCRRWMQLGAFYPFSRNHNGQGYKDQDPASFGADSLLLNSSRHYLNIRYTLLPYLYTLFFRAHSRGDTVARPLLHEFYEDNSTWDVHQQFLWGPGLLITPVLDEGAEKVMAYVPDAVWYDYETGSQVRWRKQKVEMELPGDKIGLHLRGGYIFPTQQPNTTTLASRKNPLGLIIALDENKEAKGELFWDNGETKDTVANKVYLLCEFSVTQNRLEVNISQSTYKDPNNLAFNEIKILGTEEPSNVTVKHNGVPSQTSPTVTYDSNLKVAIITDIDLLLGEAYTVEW
Experiment: Recombinant MGA inhibition, maltose substrate, glucose oxidase assay (Ki)
Assay type: biochemical
Details: maltose substrate; read-out: Ki against recombinant human MGA
Could you please report measured Ki for the items listed next?
Report as a plain number; the unit µM is understood.

// field: Ki; key: O=S(=O)([O-])OC(CO)C(O)C(O)C[Se+]1CC(O)C(O)C1CO (stereo not shown) ; value = 53

Measured Ki of O=S(=O)([O-])OC(CO)C(O)C(O)C[S+]1CC(O)C(O)C1CO (stereo not shown) : 20

Recorded result, `O=C(O)[C@@H](O)[C@@H](O)[C@H](O)[C@@H](O)CN1C[C@@H](O)[C@H](O)[C@H]1CO` , Ki: 21

Quick note, Ki for O=C([O-])C(O)C(O)C(O)C[S+]1CC(O)C(O)C1CO (stereo not shown) landed at 10

---

Target: recombinant human maltase glucoamylase (MGA) (Homo sapiens)
Test: MGA inhibition, p-nitrophenyl α-D-glucopyranoside substrate (IC50)
Settings: p-nitrophenyl α-D-glucopyranoside as substrate
property-measured: IC50 (µM)
Please respond with the number in µM and leave the unit unwritten.

For this compound ( CCCCCCCCCCCCCC[S+]1CC(O)C(O)C1CO (centres unmarked) [Compound 44] ), measured IC50 is 25

Measured IC50 of CCCCCCCCCCCCCC[S+]1CC(O)C(O)C1CO (centres unmarked) [Compound 48] : 30

# IC50 (compound: CCCCCCCCCCCCCCCCCC[S+]1CC(O)C(O)C1CO (centres unmarked) ) is 15

CC(C)CC[S+]1CC(O)C(O)C1CO (centres unmarked) yielded IC50 of 50

get_value(item= CCCCCC[S+]1CC(O)C(O)C1CO (centres unmarked) , readout=IC50) returns 50

---

Target: recombinant human maltase glucoamylase (MGA) (Homo sapiens)
Experiment: Recombinant MGA inhibition, maltose substrate, glucose oxidase assay (Ki)
Format: biochemical
Description: Enzyme Activity Assays: Measurement of dGMII inhibition was carried out as outlined in the literature.^12 Analysis of recombinant MGA inhibition and determination of the kinetic constants for competitive inhibition have been described.^60 Briefly, analysis of MGA inhibition was performed using maltose as the substrate, and measuring the release of glucose. […] All reactions were performed in triplicate and absorbance measurements were averaged to give a final result. […]
property-measured: inhibitory activity against recombinant human MGA (in words)

O=S(=O)([O-])OC(CO)C(O)C(O)C[Se+]1CC(O)C(O)C1CO (stereo not shown) : not active
O=S(=O)([O-])O[C@H](CO)[C@H](O)[C@@H](O)C[S+]1C[C@@H](O)[C@H](O)[C@H]1CO (stereo partly shown) : not active
